PROTOCOL_DETAILS: folding stability dG unfold from chymotrypsin proteolysis; higher = more stable
folding stability dG unfold for assorted sequences
// units = kcal/mol; emit number, no label

SAGGSAKRVAFIGGGPEIEKVIKEAEKNGFEAVPFDGTPDEFLDALKKNFPDVKQIVFPDGKVLDASAGGSA [r15_712_TrMRF]: 0.192
SAGGPIKRDPDGKIEIHYNEDNGRWHVKIRDPGKPKKEREFKSPDDANEFAKSFANDGWKIDKVEPYPSAGG [r13_727_TrROS]: 1.08
SSLGPGELEVTELETTEEELPDGTTLKRTLSREIVPDPAGAGRVVLTETLSTVPPDGSETVTTLSVTVLASA [r9_838_JUSTAS]: -0.0934
SGLLEKFLKEAEEWIKKLGLKVKPGEKVEIPIPFENNLIAKIEFYPGEKIIKVVLIGENKPVEYKFKIEKSA [r9_426_TrMRF]: 2.32
SAGGSAGGSMPPLAPDETVTQTLPSPDGSEVLVTYTWVPGEGLVETKVTDPATGKTTSTKTPVPSAGGSAGG [r6_440_JUSTAS]: -0.521

Inquiry: Complete the entry with folding stability dG unfold for SAGGSAGGSASITYENGYATITLKVPEGTVRIVDLATNEVIEIKPGDTVTIRVKIPPPPPESAGGSAGGSAG [r3_185_TrROS_Hall]
Reply text: 1.55

Inquiry: Complete the entry with folding stability dG unfold for SAGGSAGGSAMEILSKEIIPNNDLIIIDIKVKKKNKEYIYKLIIKGDKIIKISEIEIDDAPSAGGSAGGSAG [r3_48_TrMRF]
Reply text: 2.5

Inquiry: Complete the entry with folding stability dG unfold for SAGGSAGGSAGAWTDPDGNPYEVKEATVASLGPENPIVLVRFSENGELRLVPLEQALADLSAGGSAGGSAGG [r17_517_TrMRF]
Reply text: 0.558
